assay: Stability at pH 7.4 in phosphate buffer (PBS); assay type: physicochemical; conditions: PBS pH 7.4, 37 °C, 24 h
measurement-kind: Stability (% compound ± SE), buffer (%)

Ask | If you can, please state the reported Stability (% compound ± SE), buffer value of NC(=S)c1ccc(C(=O)O)cc1 [Compound 17] .
Reply | 82.3

(P) C=CCSCC(NC(C)=O)C(=O)O (stereo not drawn) [Compound 1]
(Q) O=C(O)CCC(=O)NSC(=O)c1ccccc1 [Compound 7]
Ask | So which one has the bigger Stability (% compound ± SE), buffer here, P or Q ? Record your answer as the label of the chosen record.
Reply | P
(P: 91.5%, Q: 57.1%)
